- System: HT-29
- PROTOCOL_DESCRIPTION: Cytotoxicity against human HT29 cells after 48 hrs by SRB assay
- Format: functional, cell-based
- APPLIED_CONDITIONS: Homo sapiens, HT-29, 48 h
MEASURE_NAME: GI50 (µM)
Value expressed in µM; do not type the unit.

Record excerpt, results attached:
- SMILES_DATA: "C/C=C1\\NC(=O)[C@H](Cc2ccccc2)NC(=O)[C@@H](C(C)C)NC(=O)[C@@H]([C@H](C)CC)NC(=O)[C@H](NC(=O)[C@H](NC(=O)[C@H](CCCN)NC(=O)[C@H]2CCCN2C(=O)[C@H](NC(=O)[C@@H](NC(=O)[C@@H](NC(=O)[C@H](NC(=O)CCCC(C)C)C(C)C)[C@@H](C)O)[C@@H](C)O)C(C)C)[C@H](C)CC)[C@H](C)OC(=O)[C@H](C(C)C)NC1=O"
  TARGET_OF_ASSAY: "HT-29"
  MEASURE_NAME: "GI50"
  TEST_RESULT: 11
- SMILES_DATA: "C/C=C1\\NC(=O)[C@H](Cc2ccccc2)NC(=O)[C@@H](C(C)C)NC(=O)[C@@H]([C@H](C)CC)NC(=O)[C@H](NC(=O)[C@H](NC(=O)[C@H](CCCN)NC(=O)[C@H]2CCCN2C(=O)[C@H](NC(=O)[C@@H](NC(=O)[C@@H](NC(=O)[C@@H](NC(=O)CCCC(C)C)C(C)C)[C@@H](C)O)C(C)C)C(C)C)[C@H](C)CC)[C@H](C)OC(=O)[C@H](C(C)C)NC1=O"
  TARGET_OF_ASSAY: "HT-29"
  MEASURE_NAME: "GI50"
  TEST_RESULT: 0.635

Supply reported GI50 belonging to this molecule: CC[C@@H](C)[C@@H](NC(=O)[C@H](CCCN)NC(=O)[C@H]1CCCN1C(=O)[C@H](NC(=O)[C@@H](NC(=O)[C@@H](NC(=O)[C@H](NC(=O)CCCC(C)C)C(C)C)[C@@H](C)O)C(C)C)C(C)C)C(=O)N[C@H]1C(=O)N[C@H]([C@H](C)CC)C(=O)N[C@H](C(C)C)C(=O)N[C@@H](Cc2ccccc2)C(=O)NC(C)(C)C(=O)N[C@@H](C(C)C)C(=O)O[C@H]1C 2.35

###

List of log10(CC50) values.
- Test system: HT-29
- PROTOCOL_DESCRIPTION: Cytotoxicity against human HT29 cells after 48 hrs by SRB assay
- Format: functional, cell-based
- APPLIED_CONDITIONS: Homo sapiens, HT-29, 48 h; read-out: LC50 (the source's name)
Log scale reminder: CC50 in nM, then log10 taken.

- SMILES_DATA: "C/C=C1\\NC(=O)[C@H](Cc2ccccc2)NC(=O)[C@@H](C(C)C)NC(=O)[C@@H]([C@H](C)CC)NC(=O)[C@H](NC(=O)[C@H](NC(=O)[C@H](CCCN)NC(=O)[C@H]2CCCN2C(=O)[C@H](NC(=O)[C@@H](NC(=O)[C@H](NC(=O)[C@H](NC(=O)CCCC(C)C)C(C)C)[C@@H](C)O)C(C)C)C(C)C)[C@H](C)CC)[C@H](C)OC(=O)[C@H](C(C)C)NC1=O"
  MEASURE_NAME: "log10(CC50)"
  TEST_RESULT: 3.67
- SMILES_DATA: "C/C=C1\\NC(=O)[C@H](Cc2ccccc2)NC(=O)[C@@H](C(C)C)NC(=O)[C@@H]([C@H](C)CC)NC(=O)[C@H](NC(=O)[C@H](NC(=O)[C@H](CCCNC(=O)CCCC[C@@H]2SC[C@@H]3NC(=O)N[C@@H]32)NC(=O)[C@H]2CCCN2C(=O)[C@H](NC(=O)[C@@H](NC(=O)[C@@H](NC(=O)[C@H](NC(=O)CCCC(C)C)C(C)C)[C@@H](C)O)C(C)C)C(C)C)[C@H](C)CC)[C@H](C)OC(=O)[C@H](C(C)C)NC1=O"
  MEASURE_NAME: "log10(CC50)"
  TEST_RESULT: 2.21
- SMILES_DATA: "C/C=C1\\NC(=O)[C@H](Cc2ccccc2)NC(=O)[C@@H](C(C)C)NC(=O)[C@@H]([C@H](C)CC)NC(=O)[C@H](NC(=O)[C@H](NC(=O)[C@H](CCCNC(=O)c2cc(F)c(F)c(F)c2F)NC(=O)[C@H]2CCCN2C(=O)[C@H](NC(=O)[C@@H](NC(=O)[C@@H](NC(=O)[C@H](NC(=O)CCCC(C)C)C(C)C)[C@@H](C)O)C(C)C)C(C)C)[C@H](C)CC)[C@H](C)OC(=O)[C@H](C(C)C)NC1=O"
  MEASURE_NAME: "log10(CC50)"
  TEST_RESULT: 2.31
- SMILES_DATA: "C/C=C1\\NC(=O)[C@H](Cc2ccc3ccccc3c2)NC(=O)[C@@H](C(C)C)NC(=O)[C@@H]([C@H](C)CC)NC(=O)[C@H](NC(=O)[C@H](NC(=O)[C@H](CCCN)NC(=O)[C@H]2CCCN2C(=O)[C@H](NC(=O)[C@@H](NC(=O)[C@@H](NC(=O)[C@H](NC(=O)CCCC(C)C)C(C)C)[C@@H](C)O)C(C)C)C(C)C)[C@H](C)CC)[C@H](C)OC(=O)[C@H](C(C)C)NC1=O"
  MEASURE_NAME: "log10(CC50)"
  TEST_RESULT: 1.78

Field: next compound
Supply reported log10(CC50) belonging to this compound: C/C=C1\NC(=O)[C@H](Cc2ccccc2)NC(=O)[C@@H](C(C)C)NC(=O)[C@@H]([C@H](C)CC)NC(=O)[C@H](NC(=O)[C@H](NC(=O)[C@H](CCCN)NC(=O)[C@H]2CCCN2C(=O)[C@H](NC(=O)[C@@H](NC(=O)[C@@H](NC(=O)[C@H](NC(=O)CC[C@@H](C)[C@H]2CC[C@H]3[C@@H]4CC[C@@H]5C[C@H](OC(=O)C(F)(F)F)CC[C@]5(C)[C@H]4CC[C@]23C)C(C)C)[C@@H](C)O)C(C)C)C(C)C)[C@H](C)CC)[C@H](C)OC(=O)[C@H](C(C)C)NC1=O 2.88

###

- Tested on: PANC-1
- PROTOCOL_DESCRIPTION: Cytotoxicity against human PANC1 cells after 48 hrs by SRB assay
- Format: functional
- APPLIED_CONDITIONS: PANC-1, 48 h
MEASURE_NAME: TGI (nM)
Value expressed in nM; do not type the unit.

Record excerpt, results attached:
- SMILES_DATA: "C/C=C1\\NC(=O)[C@H](Cc2ccccc2)NC(=O)[C@@H](C(C)C)NC(=O)[C@@H]([C@H](C)CC)NC(=O)[C@H](NC(=O)[C@H](NC(=O)[C@H](CCCN)NC(=O)[C@H]2CCCN2C(=O)[C@H](NC(=O)[C@@H](NC(=O)[C@@H](NC(=O)[C@@H](NC(=O)CCCC(C)C)C(C)C)[C@@H](C)O)C(C)C)C(C)C)[C@H](C)CC)[C@H](C)OC(=O)[C@H](C(C)C)NC1=O"
  TGI, nM: 1560
- SMILES_DATA: "C/C=C1\\NC(=O)[C@H](Cc2ccccc2)NC(=O)[C@@H](C(C)C)NC(=O)[C@@H]([C@H](C)CC)NC(=O)[C@H](NC(=O)[C@H](NC(=O)[C@H](CCCN)NC(=O)[C@H]2CCCN2C(=O)[C@H](NC(=O)[C@@H](NC(=O)[C@@H](NC(=O)[C@@H](C)NC(=O)CCCC(C)C)[C@@H](C)O)C(C)C)C(C)C)[C@H](C)CC)[C@H](C)OC(=O)[C@H](C(C)C)NC1=O"
  TGI, nM: 1900
- SMILES_DATA: "C/C=C1\\NC(=O)[C@H](Cc2ccccc2)NC(=O)[C@@H](C(C)C)NC(=O)[C@@H]([C@H](C)CC)NC(=O)[C@H](NC(=O)[C@H](NC(=O)[C@H](CCCNC(=O)CCOCCOCCN)NC(=O)[C@H]2CCCN2C(=O)[C@H](NC(=O)[C@@H](NC(=O)[C@@H](NC(=O)[C@H](NC(=O)CCCC(C)C)C(C)C)[C@@H](C)O)C(C)C)C(C)C)[C@H](C)CC)[C@H](C)OC(=O)[C@H](C(C)C)NC1=O"
  TGI, nM: 1060
- SMILES_DATA: "C/C=C1\\NC(=O)[C@H](Cc2ccccc2)NC(=O)[C@@H](C(C)C)NC(=O)[C@@H]([C@@H](C)CC)NC(=O)[C@H](NC(=O)[C@H](NC(=O)[C@H](CCCN)NC(=O)[C@H]2CCCN2C(=O)[C@H](NC(=O)[C@@H](NC(=O)[C@@H](NC(=O)[C@H](NC(=O)CCCC(C)C)[C@@H](C)O)[C@@H](C)O)C(C)C)C(C)C)[C@@H](C)CC)[C@@H](C)OC(=O)[C@H](C(C)C)NC1=O"
  TGI, nM: 5260
- SMILES_DATA: "C/C=C1\\NC(=O)[C@H](Cc2ccccc2)NC(=O)[C@@H](C(C)C)NC(=O)[C@@H]([C@H](C)CC)NC(=O)[C@H](N)[C@H](C)OC(=O)[C@H](C(C)C)NC1=O"
  TGI, nM: 9720

Field: next molecule
Fetch value of TGI on PANC-1 for C/C=C1\NC(=O)[C@H](Cc2c(F)c(F)c(F)c(F)c2F)NC(=O)[C@@H](C(C)C)NC(=O)[C@@H]([C@H](C)CC)NC(=O)[C@H](NC(=O)[C@H](NC(=O)[C@H](CCCN)NC(=O)[C@H]2CCCN2C(=O)[C@H](NC(=O)[C@@H](NC(=O)[C@@H](NC(=O)[C@H](NC(=O)CC[C@@H](C)CC)C(C)C)[C@@H](C)O)C(C)C)C(C)C)[C@H](C)CC)[C@H](C)OC(=O)[C@H](C(C)C)NC1=O . 3420
